FYI, the data here is from patent US9125430B2.

- assay-explanation: Stability of pure lycopene isomers in n-hexane during storage at room temperature
- Assay type: physicochemical
- protocol-conditions: n-hexane, room temperature, absence of light, 12 days
measured-parameter: concentration x-Z

CC(C)=CCC/C(C)=C/C=C/C(C)=C/C=C/C(C)=C/C=C/C=C(C)/C=C/C=C(C)/C=C/C=C(\C)CCC=C(C)C [all-E lycopene] :: 5.6 % of total isomers

Need concentration x-Z of CC(C)=CCC/C(C)=C/C=C/C(C)=C/C=C/C(C)=C\C=C\C=C(C)\C=C\C=C(C)\C=C\C=C(/C)CCC=C(C)C [13-Z lycopene] , thanks.
5.8 % of total isomers

Need concentration x-Z of CC(C)=CCC\C(C)=C/C=C/C(C)=C/C=C/C(C)=C/C=C/C=C(C)/C=C/C=C(C)/C=C/C=C(\C)CCC=C(C)C [5-Z lycopene] , thanks.
26.7 % of total isomers

Need concentration x-Z of CC(C)=CCC/C(C)=C/C=C/C(C)=C\C=C\C(C)=C\C=C\C=C(C)\C=C\C=C(C)\C=C\C=C(/C)CCC=C(C)C [9-Z lycopene] , thanks.
15.9 % of total isomers

----------
Known concentration 5-Z of a selection of molecules
- assay-explanation: Stability of pure lycopene isomers in n-hexane during storage at room temperature
- Assay type: physicochemical
- protocol-conditions: n-hexane, room temperature, absence of light, 5 days
- Description: Pure 5-Z, 9-Z, 13-Z and all-E lycopene were isolated from isomerised tomato oleoresin (submitted to 1 hour heating), by collecting the fractions containing the corresponding peaks after HPLC separation (see below the experimental conditions). […] Amount of total lycopene was determined by reverse phase HPLC on a C18 precolumn (ODS Hypersil, 5 μm, 20×4 mm; Hewlett Packard, Geneva, Switzerland) and a C18 column (Nova pak, 3.9 μm i.d.×300 mm length, Millipore, Volketswil, Switzerland). […]

Below are worked cases with known answers.
CC(C)=CCC/C(C)=C/C=C/C(C)=C/C=C/C(C)=C/C=C/C=C(C)/C=C/C=C(C)/C=C/C=C(\C)CCC=C(C)C :: 3.8 % of total isomers
CC(C)=CCC/C(C)=C/C=C/C(C)=C\C=C\C(C)=C\C=C\C=C(C)\C=C\C=C(C)\C=C\C=C(/C)CCC=C(C)C :: 1.5 % of total isomers
CC(C)=CCC\C(C)=C/C=C/C(C)=C/C=C/C(C)=C/C=C/C=C(C)/C=C/C=C(C)/C=C/C=C(\C)CCC=C(C)C :: 68.4 % of total isomers

Kindly consider the entry below.
Need concentration 5-Z of CC(C)=CCC/C(C)=C/C=C/C(C)=C/C=C/C(C)=C\C=C\C=C(C)\C=C\C=C(C)\C=C\C=C(/C)CCC=C(C)C , thanks.
1.9 % of total isomers

----------
- assay-explanation: Stability of pure lycopene isomers in n-hexane during storage at room temperature
- Type: physicochemical
- protocol-conditions: n-hexane, room temperature, absence of light, 5 days
- Procedure: Pure 5-Z, 9-Z, 13-Z and all-E lycopene were isolated from isomerised tomato oleoresin (submitted to 1 hour heating), by collecting the fractions containing the corresponding peaks after HPLC separation (see below the experimental conditions). […] Amount of total lycopene was determined by reverse phase HPLC on a C18 precolumn (ODS Hypersil, 5 μm, 20×4 mm; Hewlett Packard, Geneva, Switzerland) and a C18 column (Nova pak, 3.9 μm i.d.×300 mm length, Millipore, Volketswil, Switzerland). […]
Known concentration x-Z of a selection of molecules

Below are worked cases with known answers.
CC(C)=CCC\C(C)=C/C=C/C(C)=C/C=C/C(C)=C/C=C/C=C(C)/C=C/C=C(C)/C=C/C=C(\C)CCC=C(C)C :: 27.7 % of total isomers
CC(C)=CCC/C(C)=C/C=C/C(C)=C/C=C/C(C)=C\C=C\C=C(C)\C=C\C=C(C)\C=C\C=C(/C)CCC=C(C)C :: 4.3 % of total isomers
CC(C)=CCC/C(C)=C/C=C/C(C)=C\C=C\C(C)=C\C=C\C=C(C)\C=C\C=C(C)\C=C\C=C(/C)CCC=C(C)C :: 8.6 % of total isomers

Kindly consider the entry below.
Need concentration x-Z of CC(C)=CCC/C(C)=C/C=C/C(C)=C/C=C/C(C)=C/C=C/C=C(C)/C=C/C=C(C)/C=C/C=C(\C)CCC=C(C)C , thanks.
5.1 % of total isomers

----------
- assay-explanation: Stability of pure lycopene isomers in n-hexane during storage at room temperature
- Assay type: physicochemical
- protocol-conditions: n-hexane, room temperature, absence of light, 33 days
measured-parameter: concentration x-Z

Below are worked cases with known answers.
CC(C)=CCC/C(C)=C/C=C/C(C)=C/C=C/C(C)=C\C=C\C=C(C)\C=C\C=C(C)\C=C\C=C(/C)CCC=C(C)C :: 10.2 % of total isomers
CC(C)=CCC/C(C)=C/C=C/C(C)=C/C=C/C(C)=C/C=C/C=C(C)/C=C/C=C(C)/C=C/C=C(\C)CCC=C(C)C :: 8.4 % of total isomers

Need concentration x-Z of CC(C)=CCC\C(C)=C/C=C/C(C)=C/C=C/C(C)=C/C=C/C=C(C)/C=C/C=C(C)/C=C/C=C(\C)CCC=C(C)C , thanks.
30.7 % of total isomers

Need concentration x-Z of CC(C)=CCC/C(C)=C/C=C/C(C)=C\C=C\C(C)=C\C=C\C=C(C)\C=C\C=C(C)\C=C\C=C(/C)CCC=C(C)C , thanks.
19.7 % of total isomers

----------
- assay-explanation: Stability of pure lycopene isomers in n-hexane during storage at room temperature
- Assay type: physicochemical
- protocol-conditions: n-hexane, room temperature, absence of light, 33 days
Known concentration 5-Z of a selection of molecules

Below are worked cases with known answers.
CC(C)=CCC/C(C)=C/C=C/C(C)=C/C=C/C(C)=C\C=C\C=C(C)\C=C\C=C(C)\C=C\C=C(/C)CCC=C(C)C :: 11.7 % of total isomers
CC(C)=CCC\C(C)=C/C=C/C(C)=C/C=C/C(C)=C/C=C/C=C(C)/C=C/C=C(C)/C=C/C=C(\C)CCC=C(C)C :: 53.5 % of total isomers
CC(C)=CCC/C(C)=C/C=C/C(C)=C\C=C\C(C)=C\C=C\C=C(C)\C=C\C=C(C)\C=C\C=C(/C)CCC=C(C)C :: 4.1 % of total isomers

Kindly consider the entry below.
Need concentration 5-Z of CC(C)=CCC/C(C)=C/C=C/C(C)=C/C=C/C(C)=C/C=C/C=C(C)/C=C/C=C(C)/C=C/C=C(\C)CCC=C(C)C , thanks.
13.4 % of total isomers

----------
- assay-explanation: Stability of pure lycopene isomers in n-hexane during storage at room temperature
- Assay type: physicochemical
- protocol-conditions: n-hexane, room temperature, absence of light, 0 days
- Method: Pure 5-Z, 9-Z, 13-Z and all-E lycopene were isolated from isomerised tomato oleoresin (submitted to 1 hour heating), by collecting the fractions containing the corresponding peaks after HPLC separation (see below the experimental conditions). […] Amount of total lycopene was determined by reverse phase HPLC on a C18 precolumn (ODS Hypersil, 5 μm, 20×4 mm; Hewlett Packard, Geneva, Switzerland) and a C18 column (Nova pak, 3.9 μm i.d.×300 mm length, Millipore, Volketswil, Switzerland). […]
measured-parameter: concentration all E

Below are worked cases with known answers.
CC(C)=CCC\C(C)=C/C=C/C(C)=C/C=C/C(C)=C/C=C/C=C(C)/C=C/C=C(C)/C=C/C=C(\C)CCC=C(C)C :: 1.1 % of total isomers
CC(C)=CCC/C(C)=C/C=C/C(C)=C/C=C/C(C)=C\C=C\C=C(C)\C=C\C=C(C)\C=C\C=C(/C)CCC=C(C)C :: 2.4 % of total isomers
CC(C)=CCC/C(C)=C/C=C/C(C)=C/C=C/C(C)=C/C=C/C=C(C)/C=C/C=C(C)/C=C/C=C(\C)CCC=C(C)C :: 97.6 % of total isomers

Need concentration all E of CC(C)=CCC/C(C)=C/C=C/C(C)=C\C=C\C(C)=C\C=C\C=C(C)\C=C\C=C(C)\C=C\C=C(/C)CCC=C(C)C , thanks.
4.4 % of total isomers

----------
- assay-explanation: Stability of pure lycopene isomers in n-hexane during storage at room temperature
- Assay type: physicochemical
- protocol-conditions: n-hexane, room temperature, absence of light, 1 day
measured-parameter: concentration x-Z

Need concentration x-Z of CC(C)=CCC\C(C)=C/C=C/C(C)=C/C=C/C(C)=C/C=C/C=C(C)/C=C/C=C(C)/C=C/C=C(\C)CCC=C(C)C , thanks.
13.5 % of total isomers

Need concentration x-Z of CC(C)=CCC/C(C)=C/C=C/C(C)=C/C=C/C(C)=C/C=C/C=C(C)/C=C/C=C(C)/C=C/C=C(\C)CCC=C(C)C , thanks.
1.5 % of total isomers

Need concentration x-Z of CC(C)=CCC/C(C)=C/C=C/C(C)=C\C=C\C(C)=C\C=C\C=C(C)\C=C\C=C(C)\C=C\C=C(/C)CCC=C(C)C , thanks.
2.8 % of total isomers

Need concentration x-Z of CC(C)=CCC/C(C)=C/C=C/C(C)=C/C=C/C(C)=C\C=C\C=C(C)\C=C\C=C(C)\C=C\C=C(/C)CCC=C(C)C , thanks.
0 % of total isomers
